target: recombinant human MMP-13 (Homo sapiens); test: In vitro metalloprotease inhibition, fluorogenic MCA peptide substrate; settings: room temperature, pH 7.5, 4 μM substrate, APMA-activated enzyme
For each entry below, report its pIC50 value.
Scale: pIC50 equals -log10([C]), with [C] in mol/L.

INPUT: Hello, I am looking for reported pIC50 with recombinant human MMP-13 (Homo sapiens) for CC(C)(CS(=O)(=O)c1ccc(Oc2ccccc2)cc1)[C@H](NC(=O)CN1CCCC1)C(=O)NO . Could you help?
OUTPUT: 8.62

INPUT: Which pIC50 is reported with recombinant human MMP-13 (Homo sapiens) for this entry: CC(C)(CCS(=O)(=O)c1ccc(Oc2ccccc2)cc1)C(=O)NO ?
OUTPUT: 5.59

INPUT: Field: pIC50 (recombinant human MMP-13 (Homo sapiens)). Entry: CC(C)(CS(=O)(=O)c1ccc(Oc2ccccc2)cc1)[C@H](O)C(=O)NO
OUTPUT: 8.72

INPUT: Recorded pIC50 for O=C(NO)C(CCS(=O)(=O)c1ccc(Oc2ccccc2)cc1)N1CCCCC1 (centres unmarked) with recombinant human MMP-13 (Homo sapiens), please?
OUTPUT: 7.86

INPUT: So what pIC50 did O=C(NO)C1(CCS(=O)(=O)c2ccc(Oc3ccccc3)cc2)CCNCC1 get with recombinant human MMP-13 (Homo sapiens)?
OUTPUT: 6.77

INPUT: // lookup pIC50 | system=recombinant human MMP-13 (Homo sapiens) | key= CC(C)(CS(=O)(=O)c1ccc(Oc2ccccc2)cc1)[C@H](OCc1ccccn1)C(=O)NO
OUTPUT: 8.62

INPUT: Record CC(C)(CS(=O)(=O)c1ccc(Oc2ccccc2)cc1)[C@@H](O)C(=O)NO : what is its pIC50 with recombinant human MMP-13 (Homo sapiens)?
OUTPUT: 8.06

INPUT: Param readout= pIC50; system= recombinant human MMP-13 (Homo sapiens); entry= CC(C)(CS(=O)(=O)c1ccc(Oc2ccccc2)cc1)[C@H](NC(=O)CN1CCOCC1)C(=O)NO [Example 13] ; returns value.
OUTPUT: 8.85

Cited source: patent US6476027B1
